molecular target: UniProt Q92SD2
Sequence (Q92SD2 entry or part of it): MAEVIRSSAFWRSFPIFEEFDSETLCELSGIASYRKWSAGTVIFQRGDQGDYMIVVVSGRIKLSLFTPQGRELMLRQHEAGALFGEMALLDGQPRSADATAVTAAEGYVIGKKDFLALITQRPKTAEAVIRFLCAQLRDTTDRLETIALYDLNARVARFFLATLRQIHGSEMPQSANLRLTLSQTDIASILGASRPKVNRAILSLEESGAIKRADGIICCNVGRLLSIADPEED
pKd: −log10 of the molar value.
Measure: pKd

Test smiles	Test target	Reading
Nc1nc2c(ncn2[C@@H]2O[C@@H]3COP(=O)(O)O[C@H]3[C@H]2O)c(=O)[nH]1	UniProt Q92SD2	4.62
